Entries and their log10(CH4 permeability) values follow.
In our notation, the value equals log10 of CH4 permeability in Barrer.

Record excerpt, results attached:
1) *c1ccc(Oc2ccc(C3(c4ccc(Oc5ccc(N6C(=O)c7ccc(C(c8ccc9c(c8)C(=O)N(*)C9=O)(C(F)(F)F)C(F)(F)F)cc7C6=O)cc5)cc4)c4ccccc4-c4ccccc43)cc2)cc1 (repeat unit) :: -0.16
2) *c1cccc(S(=O)(=O)c2cccc(N3C(=O)c4ccc(C(c5ccc6c(c5)C(=O)N(*)C6=O)(C(F)(F)F)C(F)(F)F)cc4C3=O)c2)c1 (repeat unit) :: -1.24
3) *OC1OC(OC(C)=O)C(*)C(OC(C)=O)C1OC(C)=O (repeat unit) :: -0.70
4) *Oc1ccc(Oc2ccc(C(=O)c3ccc(*)cc3)cc2)c(-c2cc(C)cc(C)c2)c1 (repeat unit) :: -1.30
5) *OC(=O)Oc1c(C)cc(C(C)(C)c2cc(C)c(*)c(C)c2)cc1C (repeat unit) :: -0.02
6) *C(C)=C(*)[Si](C)(C)C (repeat unit) :: 4.16
7) *Oc1ccc(Oc2ccc(Oc3ccc(S(=O)(=O)c4ccc(*)cc4)cc3)cc2)cc1 (repeat unit) :: -0.74
8) *C(=C(*)c1ccc2c(c1)C(C)(C)CC2(C)C)c1cccc(F)c1 (repeat unit) :: 4.44

Report measured log10(CH4 permeability); entry is *c1c(C)c(C)c(N2C(=O)c3ccc(Oc4cc(C)c(Oc5ccc6c(c5)C(=O)N(*)C6=O)c(C)c4C)cc3C2=O)c(C)c1C (repeat unit)
0.88

Give the reported value of log10(CH4 permeability) for this record: *C(=C(*)c1cccc([Si](C)(C)C)c1)c1ccccc1 (repeat unit)
3.18

Query log10(CH4 permeability) for *C(=C(*)c1ccc(O[Si](C)(C)C(C)(C)C)cc1)c1ccc(F)cc1 (repeat unit)
2.15

Answer with the recorded log10(CH4 permeability) of *Oc1cc2c(cc1O*)C1(CC2(C)C)CC(C)(C)c2cc3c(cc21)Oc1c(C#N)c(*)c(*)c(C#N)c1O3 (repeat unit) only.
2.47

Output log10(CH4 permeability) of *Oc1cc2c(cc1O*)C1(CC2(C)C)CC(C)(C)c2cc3c(cc21)Oc1cc2nc4cc5c(cc4nc2cc1O3)C(C)(C)CC51CC(C)(C)c2cc3nc4cc(*)c(*)cc4nc3cc21 (repeat unit)
1.79

Tell us which log10(CH4 permeability) value is on record for *c1ccc(C(C)(C)c2ccc(-c3nc4cc(-c5ccc6[nH]c(*)nc6c5)ccc4[nH]3)cc2)cc1 (repeat unit)
-1.15

For *CC* (repeat unit) , write its log10(CH4 permeability).
0.59
